- Test system: DNA: Calf thymus sodium salt
- TEST NAME: DNA binding assay, ethidium bromide displacement
- Parameters: key: NB = Not binding
- CONDITION DETAILS: concentration required to displace 50% of the ethidium bromide; 20 μM DNA, 2 μM dye
PARAMETER MEASURED: QE50 Intercalating

[
  {
    "RECORD SMILES": "O=C(O)C(F)(F)F.O=C1c2ccccc2C(=O)c2c(NCCCOC(=O)[C@@H]3CCCN3)cccc21",
    "TEST RESULT": "NB"
  },
  {
    "RECORD SMILES": "C[C@@H](N)C(=O)OCCCCNc1cccc2c1C(=O)c1ccccc1C2=O.O=C(O)C(F)(F)F",
    "TEST RESULT": "NB"
  },
  {
    "RECORD SMILES": "C[C@@H](N)C(=O)OCCCNc1cccc2c1C(=O)c1ccccc1C2=O.O=C(O)C(F)(F)F",
    "TEST RESULT": "NB"
  }
]

---

Counter-ions that a name gives are not always drawn.
Threshold 100 °C. melting point below it: class 1. melting point at it or above: class 0.

Known results for compounds:
[
  {
    "COMPOUND": "CC(C)(C)OC(=O)N[C@H](Cc1ccccc1)C(=O)OCCCNc1cccc2c1C(=O)c1ccccc1C2=O",
    "ASSIGNED CLASS": "class 0"
  },
  {
    "COMPOUND": "NCC(=O)OCCCCNc1cccc2c1C(=O)c1ccccc1C2=O (as salt: trifluoroacetate)",
    "ASSIGNED CLASS": "class 0"
  },
  {
    "COMPOUND": "C[C@@H](N)C(=O)OCCCNc1cccc2c1C(=O)c1ccccc1C2=O.O=C(O)C(F)(F)F",
    "ASSIGNED CLASS": "class 0"
  },
  {
    "COMPOUND": "CN[C@@H](C)C(=O)OCCCCNc1cccc2c1C(=O)c1ccccc1C2=O.O=C(O)C(F)(F)F",
    "ASSIGNED CLASS": "class 1"
  },
  {
    "COMPOUND": "O=C(O)C(F)(F)F.O=C1c2ccccc2C(=O)c2c(NCCCOC(=O)[C@H]3CCCN3)cccc21",
    "ASSIGNED CLASS": "class 1"
  }
]

Now for another entry.
Consider the compound `CC(C)(C)OC(=O)N1CCC[C@@H]1C(=O)OCCCNc1cccc2c1C(=O)c1ccccc1C2=O` . Is its melting point strictly less than 100 °C?
class 0

---

- Test system: MAC 15A adenocarcinoma of the colon
- TEST NAME: In vitro chemosensitivity against MAC 15A adenocarcinoma (MTT assay)
- Format: cell-based
- CONDITION DETAILS: Mus musculus, MAC15A, 96 hours continuous exposure
pIC50: −log10 of the molar value. Counter-ions that a name gives are not always drawn.
Short version: pIC50 at least 5 is Criterion met, less is Criterion not met.

[
  {
    "MOLECULE": "O=C(O)C(F)(F)F.O=C1c2ccccc2C(=O)c2c(NCCOC(=O)[C@@H]3CCCN3)cccc21 [Example 137, trifluoroacetate]",
    "ASSIGNED CLASS": "Criterion not met"
  },
  {
    "MOLECULE": "NCC(=O)OCCCNc1ccc(O)c2c1C(=O)c1c(O)cccc1C2=O.O=C(O)C(F)(F)F [Example 127, trifluoroacetate]",
    "ASSIGNED CLASS": "Criterion met"
  },
  {
    "MOLECULE": "CCCC(=O)OCCCCNc1cccc2c1C(=O)c1ccccc1C2=O [Example 89, trifluoroacetate]",
    "ASSIGNED CLASS": "Criterion met"
  },
  {
    "MOLECULE": "CC(C)[C@H](N)C(=O)OCCNc1cccc2c1C(=O)c1ccccc1C2=O [Example 25, trifluoroacetate]",
    "ASSIGNED CLASS": "Criterion not met"
  },
  {
    "MOLECULE": "CC(C)[C@H](N)C(=O)OCCCNc1cccc2c1C(=O)c1ccccc1C2=O.O=C(O)C(F)(F)F [Example 35, trifluoroacetate]",
    "ASSIGNED CLASS": "Criterion met"
  }
]

For this molecule, is measured pIC50 5 or higher? `NCC(=O)NCC(=O)OCCCNc1cccc2c1C(=O)c1ccccc1C2=O`
Criterion met

For this molecule, is measured pIC50 5 or higher? `N[C@@H](C(=O)OCCCNc1cccc2c1C(=O)c1ccccc1C2=O)c1ccccc1`
Criterion met

For this molecule, is measured pIC50 5 or higher? `N[C@@H](Cc1ccccc1)C(=O)OCCCNc1cccc2c1C(=O)c1ccccc1C2=O`
Criterion met

For this molecule, is measured pIC50 5 or higher? `N[C@H](C(=O)OCCCNc1cccc2c1C(=O)c1ccccc1C2=O)c1ccccc1`
Criterion met

For this molecule, is measured pIC50 5 or higher? `CN[C@@H](C)C(=O)OCCCCNc1cccc2c1C(=O)c1ccccc1C2=O`
Criterion met
